Tested on: VchCAST RNA-guided transposition machinery (E. coli BL21(DE3) host, lacZ target)
Experiment: relative integration efficiency (T-LR orientation) vs wild-type transposon end (log2 (normalized fold change)); transposon end mutated: right end (5 bp flank + 75 bp right end); higher = more efficient transposition
measure: relative integration efficiency (log2)

[[record]]
sequence_chain = "ACATTTGTTGATACAACCTTAAAATGATAATTACACCCTTAAATTGATAATTATCACACCCTTAAATTGATATTGCCTCTGATCATAGTCAGACCAACATTGCTACGACCCGTATTCGCACCGACAC"
assay_result = -0.505

[[record]]
sequence_chain = "ACATTTGTTGATACACCCATAAATTGATATTGCCACCCATAAATTGATATTGCTCAGTGGGTATTTAACTATAACGCTCTGATCATAGTCAGACCAACATTGCTACGACCCGTATTCGCACCGACAC"
assay_result = 2.19

[[record]]
sequence_chain = "ACATTTGTTGATACAACCATAAAATGATAATTACACCCATAAATTGATAATTATCAACAACATAAATTGATATTGCCTCTGATCATAGTCAGACCAACATTGCTACGACCCGTATTCGCACCGACAC"
assay_result = 1.36

[[record]]
sequence_chain = "ACATTTGTTGATACAACCATAAAATGATAATTACACCCATAAATTGATAATTATCACACCCATAAATTGATATTGCCTCTGTTGACGGCTAGCTCAGTCCTAGGTATAGTGCTAGCCGCACCGACAC"
assay_result = -0.517

[[record]]
sequence_chain = "ACATTTGTTGATACAACCATAAGTTGATATTTTCACCCATAAATTGATAATTATCACAACCATAAAATGATAATTACTCTGATCATAGTCAGACCAACATTGCTACGACCCGTATTCGCACCGACAC"
assay_result = -0.584

[[record]]
sequence_chain = "ACATTTGTTGATACACCCATAAATTGATAATTACACCCATAAATTGATATTGCTCAGTGGGTATTTAACTATAACGCTCTGATCATAGTCAGACCAACATTGCTACGACCCGTATTCGCACCGACAC"
assay_result = 2.63

[[record]]
sequence_chain = "ACATTTGTTCATACAACCATAAAATGATAATTACACCCATAAATGGATCATTATCACCCCCAATTTAACTATAACGCTCTGATCATAGTCAGACCAACATTGCTACGACCCGTATTCGCACCGACAC"
assay_result = -0.469


---

Test system: VchCAST RNA-guided transposition machinery (E. coli BL21(DE3) host, lacZ target)
Assay: relative integration efficiency (T-LR orientation) vs wild-type transposon end (log2 (normalized fold change)); transposon end mutated: right end (5 bp flank + 75 bp right end); higher = more efficient transposition
relative integration efficiency (log2) vs 0.4: at or above is met, below is not met.

[[record]]
sequence_chain = "ACATTTGTTGATACAACCATAAAATGATTATTACACCCATAAATTGATAATAATGACACCGAATTTAACTATAACGCTCTGATCATAGTCAGACCAACATTGCTACGACCCGTATTCGCACCGACAC"
target_entity = "VchCAST RNA-guided transposition machinery (E. coli BL21(DE3) host, lacZ target)"
label_value = "met"

[[record]]
sequence_chain = "ACATTTGTTCATACAACCCTAAAATGATAATTACACCCATAAATGGATCATTATCACACCCAATTTAACTATAACGCTCTGATCATAGTCAGACCAACATTGCTACGACCCGTATTCGCACCGACAC"
target_entity = "VchCAST RNA-guided transposition machinery (E. coli BL21(DE3) host, lacZ target)"
label_value = "not met"

[[record]]
sequence_chain = "ACATTTGTTGATACAACCATAAAATGATAATTAATAATTATCACCCATAAATTGATAATTATCACACCCATAAATTGATATTGCCTCTGATCATAGTCAGACCAACATTGCTACGACCCGTATTCGC"
target_entity = "VchCAST RNA-guided transposition machinery (E. coli BL21(DE3) host, lacZ target)"
label_value = "not met"

[[record]]
sequence_chain = "ACATTTGTTGATACAACCATAAAATGATAATTACACCCATAAATTCTATATTATCACACCCATAAATTGATATTGCCTCTGATCATAGTCAGACCAACATTGCTACGACCCGTATTCGCACCGACAC"
target_entity = "VchCAST RNA-guided transposition machinery (E. coli BL21(DE3) host, lacZ target)"
label_value = "not met"

